Please provide measured Kb for the entries that follow.
# Species: Cavia porcellus
# methodNotes: Antimuscarinic activity was assayed for its ability to block the acetyl-choline induced contraction of the guinea pig ileum
# Type: functional
# appliedConditions: read-out: pA2 (converted)
Form entry: value (nM) — number only.

Q: Look up and state reported Kb for CCN(CC)CCOC(=O)C(C)(c1ccccc1)c1ccccc1
A: 3.16

Q: Please supply the value of reported Kb for the item CN1CCN(CC(=O)N2c3ccccc3C(=O)Nc3cccnc32)CC1 [PIRENZEPINE]
A: 50100

Q: Specify reported Kb for the molecule shown: CN1[C@@H]2CC[C@H]1C[C@@H](OC(=O)C(CO)c1ccccc1)C2 (some centres undefined)
A: 2

Q: Look up Kb of CCN(CC)CCOC(=O)C(c1ccccc1)c1ccccc1 and report it.
A: 79.4

====

For each entry below, report its Kb value.
# Organism: Cavia porcellus
# methodNotes: Antimuscarinic activity was assayed for its ability to block the acetyl-choline induced contraction of the guinea pig ileum
# Type: functional
The answer consists of two parts: a number and, after it, its unit.

Q: Tell me measured Kb for CCN(CC)CCOC(=O)C(c1ccccc1)c1ccccc1 please.
A: 92 nM

Q: State its Kb for this compound: CN1CCN(CC(=O)N2c3ccccc3C(=O)Nc3cccnc32)CC1 [PIRENZEPINE]
A: 50000 nM

Q: Consider the compound CCN(CC)CCOC(=O)C(C)(c1ccccc1)c1ccccc1 . State its measured Kb.
A: 3.1 nM

Q: Input CN1[C@@H]2CC[C@H]1C[C@@H](OC(=O)C(CO)c1ccccc1)C2 (some centres undefined) , output reported Kb.
A: 2 nM

====

For each record, write down the corresponding IC50.
# Species on record: Rattus norvegicus
# methodNotes: Inhibition of carbachol-induced release of alpha-amylase from pancreatic acini from rat was determined
# Format: functional
# appliedConditions: read-out: I50
A number alone suffices; assume nM.

Q: Tell us which IC50 value is on record for CN1CCN(CC(=O)N2c3ccccc3C(=O)Nc3cccnc32)CC1 [PIRENZEPINE]
A: 2800

Q: Consider the molecule CCN(CC)CCOC(=O)C(c1ccccc1)c1ccccc1 . State its measured IC50.
A: 350

Q: Report measured IC50; entry is CCN(CC)CCOC(=O)C(C)(c1ccccc1)c1ccccc1
A: 11

Q: Answer with reported IC50 of CN1[C@@H]2CC[C@H]1C[C@@H](OC(=O)C(CO)c1ccccc1)C2 (stereo partly specified)
A: 51

Q: Output measured IC50 for this item: CCN(CC)CCOC(=O)C(O)(c1ccccc1)c1ccccc1
A: 30

Q: Could you please provide reported IC50 for CN1CC2CC(OC(=O)C(C)(c3ccccc3)c3ccccc3)CC1C2 (stereo unspecified) ? Thanks!
A: 0.068
